method: Cmax in Sprague-Dawley rat at 10 mg/kg, po
Format: ADME, organism-based
Set-up: dose 10 mg/kg, route oral
particulars: in vivo
assay.endpoint: Cmax (ng/mL)
Give your result in ng/mL as a bare value.

What value of Cmax has been recorded for this entry: CC(CC(=O)OC(C)(C)C)NC(=O)C1=NOC(C(O)(C(F)(F)F)C(F)(F)F)C1 (stereo unspecified)
2680

====

method: Oral bioavailability in Sprague-Dawley rat at 10 mg/kg, iv and po
Assay type: ADME, organism-based
particulars: in vivo
assay.endpoint: bioavailability
Output should be the measured figure followed by the unit it is expressed in.

What value of bioavailability has been recorded for this entry: CC(CC(=O)OC(C)(C)C)NC(=O)C1=NOC(C(O)(C(F)(F)F)C(F)(F)F)C1 (stereo unspecified)
74%

====

method: Tmax in Sprague-Dawley rat at 10 mg/kg, po
Format: ADME, organism-based
Design: dose 10 mg/kg, route oral
particulars: in vivo
assay.endpoint: Tmax
Output should be the measured figure followed by the unit it is expressed in.

What value of Tmax has been recorded for this entry: CC(CC(=O)OC(C)(C)C)NC(=O)C1=NOC(C(O)(C(F)(F)F)C(F)(F)F)C1 (stereo unspecified)
30 min
